- testSystem: human P1R (Homo sapiens)
- Construct: expressed in transfected cells; host or cells: HKRK-B28 (porcine kidney LLC-PK1, stably transfected)
- Sequence (Q03431 27-593): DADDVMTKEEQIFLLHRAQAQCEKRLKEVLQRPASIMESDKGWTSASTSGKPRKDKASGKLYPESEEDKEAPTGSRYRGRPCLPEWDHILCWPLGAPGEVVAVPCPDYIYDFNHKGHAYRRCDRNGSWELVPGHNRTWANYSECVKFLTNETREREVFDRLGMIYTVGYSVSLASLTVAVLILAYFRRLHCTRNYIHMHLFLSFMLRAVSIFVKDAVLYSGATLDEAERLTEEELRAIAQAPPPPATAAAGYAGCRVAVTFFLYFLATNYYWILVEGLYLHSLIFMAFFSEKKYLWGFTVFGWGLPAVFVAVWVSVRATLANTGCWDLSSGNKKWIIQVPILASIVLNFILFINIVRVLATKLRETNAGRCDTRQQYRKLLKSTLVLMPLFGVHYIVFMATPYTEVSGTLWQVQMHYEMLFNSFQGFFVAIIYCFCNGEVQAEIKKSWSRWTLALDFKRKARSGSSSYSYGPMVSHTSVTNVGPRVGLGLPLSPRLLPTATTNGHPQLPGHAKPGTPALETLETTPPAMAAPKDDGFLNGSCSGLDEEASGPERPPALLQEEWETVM
- protocolText: cAMP stimulation in HKRK-B28 cells
- Type: cell-based
- studyConditions: basal 4.0 ± 0.1 pmole/well not subtracted
Square brackets hold non-standard residues; d marks the D form. Peptide text beside a SMILES is read from it. hArg = N=C(N)NCCCC[C@H](N)C(=O)O; Aib = CC(C)(N)C(=O)O
Documented cAMP EMax(obs.) across a set of compounds
quantity: cAMP EMax(obs.)

INSERT INTO assay_data (compound, valuereported) VALUES
  ('CC[C@H](C)[C@H](NC(=O)[C@H](CCC(=O)O)NC(=O)C(C)(C)NC(=O)[C@@H](NC(=O)C(C)(C)N)C(C)C)C(=O)N[C@@H](CCC(N)=O)C(=O)N[C@@H](CC(C)C)C(=O)N[C@@H](CCSC)C(=O)N[C@@H](Cc1c[nH]cn1)C(=O)N[C@@H](CCC(N)=O)C(=O)N[C@@H](CCCCNC(=N)N)C(=O)N[C@@H](C)C(=O)N[C@@H](CCCCN)C(=O)N[C@@H](Cc1c[nH]c2ccccc12)C(N)=O [[Aib^1,3,M]PTH(1-14)] (H-[Aib]V[Aib]EIQLMHQ[hArg]AKW-NH2)', '278 ± 20 pmole/well'),
  ('CC[C@H](C)[C@H](NC(=O)[C@H](CCC(=O)O)NC(=O)[C@H](C)NC(=O)[C@@H](NC(=O)[C@H](C)N)C(C)C)C(=O)NC(C)(C)C(=O)N[C@@H](CC(C)C)C(=O)N[C@@H](CCSC)C(=O)N[C@@H](Cc1c[nH]cn1)C(=O)N[C@@H](CCC(N)=O)C(=O)N[C@@H](CCCCNC(=N)N)C(=O)N[C@@H](C)C(=O)N[C@@H](CCCCN)C(=O)N[C@@H](Cc1c[nH]c2ccccc12)C(N)=O [Aib-6] (H-AVAEI[Aib]LMHQ[hArg]AKW-NH2)', '116 ± 12 pmole/well'),
  ('CC[C@H](C)[C@H](NC(=O)[C@H](CCC(=O)O)NC(=O)C(C)(C)NC(=O)[C@@H](NC(=O)[C@H](C)N)C(C)C)C(=O)N[C@@H](CCC(N)=O)C(=O)N[C@@H](CC(C)C)C(=O)N[C@@H](CCSC)C(=O)N[C@@H](Cc1c[nH]cn1)C(=O)N[C@@H](CCC(N)=O)C(=O)N[C@@H](CCCCNC(=N)N)C(=O)N[C@@H](C)C(=O)N[C@@H](CCCCN)C(=O)N[C@@H](Cc1c[nH]c2ccccc12)C(N)=O [Aib-3] (H-AV[Aib]EIQLMHQ[hArg]AKW-NH2)', '269 ± 7 pmole/well'),
  ('CC[C@H](C)[C@H](NC(=O)[C@H](CCC(=O)O)NC(=O)[C@H](C)NC(=O)[C@@H](NC(=O)[C@H](C)N)C(C)C)C(=O)N[C@@H](CCC(N)=O)C(=O)N[C@@H](CC(C)C)C(=O)NC(C)(C)C(=O)N[C@@H](Cc1c[nH]cn1)C(=O)N[C@@H](CCC(N)=O)C(=O)N[C@@H](CCCCNC(=N)N)C(=O)N[C@@H](C)C(=O)N[C@@H](CCCCN)C(=O)N[C@@H](Cc1c[nH]c2ccccc12)C(N)=O [Aib-8] (H-AVAEIQL[Aib]HQ[hArg]AKW-NH2)', '34 ± 7 pmole/well'),
  ('CSCC[C@H](NC(=O)[C@H](CC(C)C)NC(=O)[C@H](CCC(N)=O)NC(=O)C(C)(C)NC(=O)[C@H](CCC(=O)O)NC(=O)[C@H](C)NC(=O)[C@@H](NC(=O)[C@H](C)N)C(C)C)C(=O)N[C@@H](Cc1c[nH]cn1)C(=O)N[C@@H](CCC(N)=O)C(=O)N[C@@H](CCCCNC(=N)N)C(=O)N[C@@H](C)C(=O)N[C@@H](CCCCN)C(=O)N[C@@H](Cc1c[nH]c2ccccc12)C(N)=O [Aib-5] (H-AVAE[Aib]QLMHQ[hArg]AKW-NH2)', '169 ± 18 pmole/well'),
  ('CC[C@H](C)[C@H](NC(=O)[C@H](CCC(=O)O)NC(=O)[C@H](C)NC(=O)[C@@H](NC(=O)[C@H](C)N)C(C)C)C(=O)N[C@@H](CCC(N)=O)C(=O)N[C@@H](CC(C)C)C(=O)N[C@@H](CCSC)C(=O)N[C@@H](Cc1c[nH]cn1)C(=O)NC(C)(C)C(=O)N[C@@H](CCCCNC(=N)N)C(=O)N[C@@H](C)C(=O)N[C@@H](CCCCN)C(=O)N[C@@H](Cc1c[nH]c2ccccc12)C(N)=O [Aib-10] (H-AVAEIQLMH[Aib][hArg]AKW-NH2)', '214 ± 22 pmole/well'),
  ('CC[C@H](C)[C@H](NC(=O)[C@H](CCC(=O)O)NC(=O)[C@H](C)NC(=O)[C@@H](NC(=O)[C@H](C)N)C(C)C)C(=O)N[C@@H](CCC(N)=O)C(=O)N[C@@H](CC(C)C)C(=O)N[C@@H](CCSC)C(=O)N[C@@H](Cc1c[nH]cn1)C(=O)N[C@@H](CCC(N)=O)C(=O)N[C@@H](CCCCNC(=N)N)C(=O)N[C@@H](C)C(=O)NC(C)(C)C(=O)N[C@@H](Cc1c[nH]c2ccccc12)C(N)=O [Aib-13] (H-AVAEIQLMHQ[hArg]A[Aib]W-NH2)', '259 ± 10 pmole/well'),
  ('CC[C@H](C)[C@H](NC(=O)[C@H](CCC(=O)O)NC(=O)[C@H](C)NC(=O)[C@@H](NC(=O)[C@H](C)N)C(C)C)C(=O)N[C@@H](CCC(N)=O)C(=O)N[C@@H](CC(C)C)C(=O)N[C@@H](CCSC)C(=O)NC(C)(C)C(=O)N[C@@H](CCC(N)=O)C(=O)N[C@@H](CCCCNC(=N)N)C(=O)N[C@@H](C)C(=O)N[C@@H](CCCCN)C(=O)N[C@@H](Cc1c[nH]c2ccccc12)C(N)=O [Aib-9] (H-AVAEIQLM[Aib]Q[hArg]AKW-NH2)', '51 ± 8 pmole/well'),
  ('CC[C@H](C)[C@H](NC(=O)[C@H](CCC(=O)O)NC(=O)[C@H](C)NC(=O)[C@@H](NC(=O)C(C)(C)N)C(C)C)C(=O)N[C@@H](CCC(N)=O)C(=O)N[C@@H](CC(C)C)C(=O)N[C@@H](CCSC)C(=O)N[C@@H](Cc1c[nH]cn1)C(=O)N[C@@H](CCC(N)=O)C(=O)N[C@@H](CCCCNC(=N)N)C(=O)N[C@@H](C)C(=O)N[C@@H](CCCCN)C(=O)N[C@@H](Cc1c[nH]c2ccccc12)C(N)=O [Aib-1] (H-[Aib]VAEIQLMHQ[hArg]AKW-NH2)', '273 ± 6 pmole/well');

====

- protocolText: Circular dichroism spectroscopy (helical content)
- Format: physicochemical
- studyConditions: 20 μM peptide, 50 mM phosphate buffer pH 7.4
Square brackets hold non-standard residues; d marks the D form. Peptide text beside a SMILES is read from it. hArg = N=C(N)NCCCC[C@H](N)C(=O)O; Aib = CC(C)(N)C(=O)O
Documented [0]222obs × 10^−3, Phos. across a set of compounds
quantity: [0]222obs × 10^−3, Phos.

INSERT INTO assay_data (compound, quantity, valuereported) VALUES
  ('CC[C@H](C)[C@H](NC(=O)[C@H](CCC(=O)O)NC(=O)C(C)(C)NC(=O)[C@@H](NC(=O)C(C)(C)N)C(C)C)C(=O)N[C@@H](CCC(N)=O)C(=O)N[C@@H](CC(C)C)C(=O)N[C@@H](CCSC)C(=O)N[C@@H](Cc1c[nH]cn1)C(=O)N[C@@H](CCC(N)=O)C(N)=O [[Aib^1,3,M]PTH(1-10), [Aib^1,3,Gln^10]PTH(1-10)] (H-[Aib]V[Aib]EIQLMHQ-NH2)', '[0]222obs × 10^−3, Phos.', '−3.2'),
  ('CC[C@H](C)[C@H](NC(=O)[C@H](CCC(=O)O)NC(=O)C(C)(C)NC(=O)[C@@H](NC(=O)C(C)(C)N)C(C)C)C(=O)N[C@@H](CCC(N)=O)C(=O)N[C@@H](CC(C)C)C(=O)N[C@@H](CCSC)C(=O)N[C@@H](Cc1c[nH]cn1)C(=O)N[C@@H](CCC(N)=O)C(=O)N[C@@H](CCCCNC(=N)N)C(N)=O [[Aib^1,3,M]PTH(1-11), AibValAibGluIleGlnLeuMetHisGlnHar] (H-[Aib]V[Aib]EIQLMHQ[hArg]-NH2)', '[0]222obs × 10^−3, Phos.', '−3.7'),
  ('CC[C@H](C)[C@H](NC(=O)[C@H](CCC(=O)O)NC(=O)C(C)(C)NC(=O)[C@@H](NC(=O)C(C)(C)N)C(C)C)C(=O)N[C@@H](CCC(N)=O)C(=O)N[C@@H](CC(C)C)C(=O)N[C@@H](CCSC)C(=O)N[C@@H](Cc1c[nH]cn1)C(=O)N[C@@H](CCC(N)=O)C(=O)N[C@@H](CCCCNC(=N)N)C(=O)N[C@@H](C)C(=O)N[C@@H](CCCCN)C(=O)N[C@@H](Cc1c[nH]c2ccccc12)C(N)=O [[Aib^1,3,M]PTH(1-14)] (H-[Aib]V[Aib]EIQLMHQ[hArg]AKW-NH2)', '[0]222obs × 10^−3, Phos.', '−4.6'),
  ('CC[C@H](C)[C@H](NC(=O)[C@H](CCC(=O)O)NC(=O)[C@H](C)NC(=O)[C@@H](NC(=O)[C@H](C)N)C(C)C)C(=O)N[C@@H](CCC(N)=O)C(=O)N[C@@H](CC(C)C)C(=O)N[C@@H](CCSC)C(=O)N[C@@H](Cc1c[nH]cn1)C(=O)N[C@@H](CCC(N)=O)C(=O)N[C@@H](CCCCNC(=N)N)C(=O)N[C@@H](C)C(=O)N[C@@H](CCCCN)C(=O)N[C@@H](Cc1c[nH]c2ccccc12)C(N)=O [[M]PTH(1-14), reference compound] (H-AVAEIQLMHQ[hArg]AKW-NH2)', '[0]222obs × 10^−3, Phos.', '−2.3');
